Measured values drawn from patent US20050090505A1 for this set.

- studyTarget: airway epithelial sodium currents (sodium channel) (UniProt A0A8I3MKE6+A0A8I3Q679+Q95165)
- test: Sodium channel blocking activity: inhibition of short circuit current (ISC) in airway epithelial monolayers mounted in Ussing chambers
- Assay type: cell-based, human, dog, sheep or rodent
- conditions: Selected Cyclic Pyrazinoylguanidines (Formula III); mean ± spread; read-out: EC50
outcomeMeasure: EC50 (nM)
Expressed in nM, but write only the number.

- molecule: "Cl.Cl.Cl.N=C(NCCCCC1CCN(CCN)CC1)NC(=O)c1nc(Cl)c(N)nc1N [compound 25455, trihydrochloride]"
  EC50 [nM]: 104
- molecule: "N=C(NCCCCC1CCN(CC(O)CO)CC1)NC(=O)c1nc(Cl)c(N)nc1N (stereo not shown)"
  EC50 [nM]: 106
- molecule: "CC(C)(C)OC(=O)N=C(NCCCN1CCC(CCCCNC(=N)NC(=O)c2nc(Cl)c(N)nc2N)CC1)NC(=O)OC(C)(C)C"
  EC50 [nM]: 16

Consider the record given below.
Record CC(C)(C)OC(=O)NCCCN1CCC(CCCCNC(N)=NC(=O)c2nc(Cl)c(N)nc2N)CC1 . Reported EC50: 60
